Measured AUC(0-t) of individual entries
assay notes: AUC(0 to t) in ICR mouse at 2 mg/kg, iv measured at 0.083 to 8 hrs by LC-MS/MS analysis
Type: ADME, organism-based
Parameters: dose 2 mg/kg, time 0.083-8 hrs, route iv
assay context: in vivo

input smiles: Cc1nc(N2CCCC(F)(F)CC2)c(C(=O)Nc2ccc3c(c2)C(=O)NC3)cc1Cl
AUC(0-t) (ng·h/mL): 2710

input smiles: Cc1cc(F)ccc1Oc1cc(C(F)(F)F)ccc1C(=O)Nc1ccn(COP(=O)(O)O)c(=O)c1
AUC(0-t) (ng·h/mL): 2340

* * *

assay notes: Tmax in ICR mouse at 10 mg/kg, po measured at 0.5 to 24 hrs by LC-MS/MS analysis
Type: ADME, organism-based
assay context: in vivo, time 0.5-24 hrs
Measured Tmax of individual entries

input smiles: Cc1cc(F)ccc1Oc1cc(C(F)(F)F)ccc1C(=O)Nc1ccn(COP(=O)(O)O)c(=O)c1
Tmax / h: 1

input smiles: Cc1nc(N2CCCC(F)(F)CC2)c(C(=O)Nc2ccc3c(c2)C(=O)NC3)cc1Cl
Tmax / h: 1

Values from ChEMBL document CHEMBL5325430
